Listed next: entries and their corresponding IC50, IL-8 release, CyDFa stimulated with cynomolgus IL-1β.
tested_on: cynomolgus IL-1RAcP on cells (cynomolgus, UniProt A0A2K5X5J5 21-570)
assay_procedure: cell-based or functional assay
Provide the reading as a plain figure in nM.

* Y024084_h_IgG1f_AEASS (antibody, V domains shown, also called Morphosys 24084; Mor Y024084) VH: QVQLVQSGAEVKKPGASVKVSCKASGYTFTSYYMHWVRQAPGQGLEWMGIINPSGGSTSYAQKFQGRVTMTRDTSTSTVYMELSSLRSEDTAVYYCARGFVTSGIDYWGQGTLVTVSS VL: QSVLTQPPSVSAAPGQKVTISCSGSSSNIGNNYVSWYQQLPGTAPKLLIYDNNKRPSGIPDRFSGSKSGTSATLGITGLQTEDEADYYCQTWTYTGRLWIVFGGGTKLTVLG | 0.12
* Y024149_h_IgG1f_AEASS (antibody, V domains shown, Human IgG1f with AEASS effector-silencing residues, kappa light chain) VH: EVQLVESGGGLVQPGGSLRLSCAASGGTFGGSAMHWVRQAPGKGLVWVSRILTYGGIATYAESVKGRFTISRDNAKNTLYLQMNSLRAEDTAVYYCARGSSEYPKFDIWGQGTLVTVSS VL: DIQMTQSPSTLSASVGDRVTITCRASQSISSWLAWYQQKPGKAPKLLIYDASSLESGVPSRFSGSGSGTEFTLTISSLQPEDFATYYCHQLLIYPHTFGQGTKVEIKR | 0.032

The record that follows has no IC50, IL-8 release, CyDFa stimulated with cynomolgus IL-1β shown yet.
Inquiry: Form field: reported IC50, IL-8 release, CyDFa stimulated with cynomolgus IL-1β of Y024148_h_IgG1f_AEASS (antibody, V domains shown, Human IgG1f with AEASS effector-silencing residues, kappa light chain) VH: EVQLVESGGGLVQPGGSLRLSCAASGGTIGGSAVHWVRQAPGKGLVWVSRILTYSSTTQYAESVKGRFTISRDNAKNTLYLQMNSLRAEDTAVYYCARGSSEYPKFDIWGQGTLVTVSS VL: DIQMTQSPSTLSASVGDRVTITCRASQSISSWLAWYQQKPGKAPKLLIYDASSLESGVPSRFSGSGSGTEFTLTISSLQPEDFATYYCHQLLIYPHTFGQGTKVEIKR
Reply text: 0.043
